Measured selectivity ratio, listed per entry.
test: Therapeutic index, ratio of MHC for human RBC to MIC for Staphylococcus aureus ATCC 25923; conditions: human red blood cells (RBC), read-out: TI

{"substance": "H-NGVQPKYRWWRWWRRWW-OH", "selectivity ratio": "< 0.25"}

// moving on: another record for selectivity ratio
Prompt line: Please indicate selectivity ratio recorded for `H-RWWRWWRRWW-NH2`
Response line: < 0.02

###

assay: Therapeutic index, ratio of MHC for human RBC to MIC for Pseudomonas aeruginosa ATCC 27853; details: human red blood cells (RBC), read-out: TI
measured-parameter: selectivity ratio
Number only, please.

{"substance": "H-NGVQPKYKWWKWWKKWW-NH2", "selectivity ratio": 0.5}

Prompt line: Please report selectivity ratio for the following substance: `H-RWWRWWRRWW-NH2`
Response line: 0.04
